# assay: Transdermal delivery of melatonin: plasma level of melatonin after applying composition to skin of a subject
# recordedConditions: human, plasma, topical, 2 mL of […] melatonin suspension in water, Plasma level of melatonin, Table 21 control, A− N/A, helper esters 0 mM, 2.0 mL applied, 2 hr after transdermal administration
experimentalEndpoint: concentration at 2 h (ng/mL)
Reply with just the number (in ng/mL).

Challenge: Could you share which concentration at 2 h value was measured for COc1ccc2[nH]cc(CCNC(C)=O)c2c1 [Melatonin] ?
Response given: 0.1

---

# assay: Transdermal delivery of melatonin: plasma level of melatonin after applying composition to skin of a subject
# recordedConditions: human, plasma, topical, 3 mg, Plasma level of melatonin, Isoleucine isopropyl ester 333.76 mM, 0.60 mL applied to skin, 4 hr after transdermal administration
experimentalEndpoint: concentration at 4 hr (ng/mL)
Reply with just the number (in ng/mL).

Challenge: Could you share which concentration at 4 hr value was measured for COc1ccc2[nH]cc(CCNC(C)=O)c2c1 ?
Response given: 1.9

---

# Tested on: human skin tissue
# assay: Penetration rate of AI compound in AI-helper composition through human skin in vitro, modified Franz cells
# Assay type: in vitro ADME
# recordedConditions: Dialkylaminoalkyl 2-(4-isobutylphenyl)propionate: None, Al compound 0.5% w/v, 25 °C
experimentalEndpoint: Skin penetration rate of Al compound (μg/cm^2/h)
Reply with just the number (in μg/cm^2/h).

Challenge: Could you share which Skin penetration rate of Al compound value was measured for Cc1ncc(CO)c(CO)c1O.Cl ?
Response given: 0.023

Challenge: Would you mind doing CC1=C(/C=C/C(C)=C/C=C/C(C)=C/C=C/C=C(C)/C=C/C=C(C)/C=C/C2=C(C)CCCC2(C)C)C(C)(C)CCC1 as well?
Response given: 0.015

Challenge: Would you mind doing Oc1ccc(C=Cc2cc(O)cc(O)c2)cc1 as well?
Response given: 0.015

Challenge: Would you mind doing NCCS(=O)(=O)O as well?
Response given: 0.012

Challenge: Would you mind doing O=C(O)CCCCC1CCSS1 (stereo not drawn) as well?
Response given: 0.056

Challenge: Would you mind doing N[C@@H](CCC(=O)N[C@@H](CS)C(=O)NCC(=O)O)C(=O)O as well?
Response given: 0.012

Challenge: Would you mind doing Nc1nc2ncc(CNc3ccc(C(=O)N[C@@H](CCC(=O)O)C(=O)O)cc3)nc2c(=O)[nH]1 as well?
Response given: 0.012

Challenge: Would you mind doing O=C1O[C@H]([C@@H](O)CO)C(O)=C1O as well?
Response given: 0.016

Challenge: Would you mind doing CC1=C(/C=C/C(C)=C/C=C/C(C)=C/C=C/C=C(C)/C=C/C=C(C)/C=C/C2=C(C)C(=O)[C@@H](O)CC2(C)C)C(C)(C)C[C@H](O)C1=O as well?
Response given: 0.019

---

# assay: Transdermal delivery of melatonin: plasma level of melatonin after applying composition to skin of a subject
# recordedConditions: human, plasma, topical, 2 mL of […] melatonin suspension in water, Plasma level of melatonin, Table 21 control, A− N/A, helper esters 0 mM, 2.0 mL applied, 0 hr after transdermal administration
experimentalEndpoint: concentration at 0 h (ng/mL)
Reply with just the number (in ng/mL).

Challenge: Could you share which concentration at 0 h value was measured for COc1ccc2[nH]cc(CCNC(C)=O)c2c1 [Melatonin] ?
Response given: 0

All figures here come from patent US9962369B2.
